organism: Cavia porcellus; test: In vitro inhibition of responses induced by LTD4 in Isolated terminal guinea pig ileum segments at 0.1 ug/mL; assay type: functional
Decision: inhibition at 0.1 µg/mL compared against 60%; not below it gives Yes, below it gives No.

Consider the worked cases shown below.
Does the reported inhibition at 0.1 µg/mL for CCCc1c(OCCCSc2ccc(CC(=O)O)cc2)ccc(C(C)=O)c1O fall at or above the 60% mark? Yes

Does the reported inhibition at 0.1 µg/mL for CCCc1c(OCCCOc2ccc(C(=O)CCC(=O)O)cc2F)ccc(C(C)=O)c1O fall at or above the 60% mark? Yes

New cases:
Does the reported inhibition at 0.1 µg/mL for CCCc1c(OCC(O)COc2ccc3c(=O)cc(C(=O)O)oc3c2CCC)ccc(C(C)=O)c1O (centres undefined) fall at or above the 60% mark? Yes

Does the reported inhibition at 0.1 µg/mL for CCCc1c(OCCCOc2ccc(C(=O)CCC(=O)O)cc2C)ccc(C(C)=O)c1O fall at or above the 60% mark? No

Does the reported inhibition at 0.1 µg/mL for CCCc1c(OCCCOc2ccc(C(=O)CCC(=O)O)cc2)ccc(C(C)=O)c1O fall at or above the 60% mark? No

Does the reported inhibition at 0.1 µg/mL for CCCc1c(OCCCSc2ccc(C(=O)CCC(=O)O)cc2)ccc(C(C)=O)c1O fall at or above the 60% mark? Yes

Does the reported inhibition at 0.1 µg/mL for CCCc1c(OCC(O)CSc2ccc(C(=O)CCC(=O)O)cc2F)ccc(C(C)=O)c1O (centres undefined) fall at or above the 60% mark? No

Does the reported inhibition at 0.1 µg/mL for CCCc1c(OCCCSc2ccc(C(O)[C@@H](C)CC(=O)[O-])cc2)ccc(C(C)=O)c1O.[Na+] (some centres undefined) fall at or above the 60% mark? Yes

Does the reported inhibition at 0.1 µg/mL for CCCc1c(OCCCSc2ccc(C(O)CCC(=O)O)cc2)ccc(C(C)=O)c1O (centres undefined) fall at or above the 60% mark? Yes

----------
biological target: Cysteinyl leukotriene receptor 1 (Cavia porcellus); test: Compound was tested for inhibition of radioligand [3H]LTC4 binding to Cysteinyl leukotriene D4 receptor in guinea pig lung membranes; type: cell membranes, Membrane
Sequence (Q2NNR5 whole entry): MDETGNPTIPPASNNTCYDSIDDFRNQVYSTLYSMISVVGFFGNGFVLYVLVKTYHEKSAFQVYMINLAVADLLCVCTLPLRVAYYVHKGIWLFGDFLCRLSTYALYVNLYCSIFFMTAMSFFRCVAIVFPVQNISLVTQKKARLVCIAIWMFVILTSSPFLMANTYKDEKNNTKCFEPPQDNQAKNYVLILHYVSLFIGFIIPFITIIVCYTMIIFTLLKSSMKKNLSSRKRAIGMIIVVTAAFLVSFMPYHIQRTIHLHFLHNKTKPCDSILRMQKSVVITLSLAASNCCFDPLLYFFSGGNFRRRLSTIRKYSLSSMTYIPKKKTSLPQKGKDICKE
Observation Type: Ki (µM)
Reply numerically in µM, unit not repeated.

The compound identified as CCCc1c(OCCCSc2ccc(C(O)[C@@H](C)CC(=O)[O-])cc2)ccc(C(C)=O)c1O.[Na+] (stereo partly specified) registered its Ki at 8.6
